- measured target: P-GP (Homo sapiens)
- protocol: in vitro
- details: Caco-2, pH 7.4, % Recovery
parameter: recovery at 120 min, 10 µM (%)

{"columns": ["molecule", "parameter", "numeric value"],
 "data": [
  ["C[C@H]1O[C@@H](O[C@H]2[C@@H](O)C[C@H](O[C@H]3[C@@H](O)C[C@H](O[C@H]4CC[C@@]5(C)[C@H](CC[C@@H]6[C@@H]5C[C@@H](O)[C@]5(C)[C@@H](C7=CC(=O)OC7)CC[C@]65O)C4)O[C@@H]3C)O[C@@H]2C)C[C@H](O)[C@@H]1O [Digoxin, digoxin]", "recovery at 120 min, 10 µM", 95.4]
]}

* * *

- protocol: in vitro
- details: male, cynomolgus monkey

{"columns": ["compound", "recovery at 60 min, 2 μM"],
 "data": [
  ["CCN(CC)CCCC(C)Nc1ccnc2cc(Cl)ccc12 (centres unmarked)", "96.9%"],
  ["O=C(O)Cc1ccccc1Nc1c(Cl)cccc1Cl", "101%"]
]}

* * *

- measured target: BCRP (Homo sapiens)
- Sequence (Q9UNQ0 1-655): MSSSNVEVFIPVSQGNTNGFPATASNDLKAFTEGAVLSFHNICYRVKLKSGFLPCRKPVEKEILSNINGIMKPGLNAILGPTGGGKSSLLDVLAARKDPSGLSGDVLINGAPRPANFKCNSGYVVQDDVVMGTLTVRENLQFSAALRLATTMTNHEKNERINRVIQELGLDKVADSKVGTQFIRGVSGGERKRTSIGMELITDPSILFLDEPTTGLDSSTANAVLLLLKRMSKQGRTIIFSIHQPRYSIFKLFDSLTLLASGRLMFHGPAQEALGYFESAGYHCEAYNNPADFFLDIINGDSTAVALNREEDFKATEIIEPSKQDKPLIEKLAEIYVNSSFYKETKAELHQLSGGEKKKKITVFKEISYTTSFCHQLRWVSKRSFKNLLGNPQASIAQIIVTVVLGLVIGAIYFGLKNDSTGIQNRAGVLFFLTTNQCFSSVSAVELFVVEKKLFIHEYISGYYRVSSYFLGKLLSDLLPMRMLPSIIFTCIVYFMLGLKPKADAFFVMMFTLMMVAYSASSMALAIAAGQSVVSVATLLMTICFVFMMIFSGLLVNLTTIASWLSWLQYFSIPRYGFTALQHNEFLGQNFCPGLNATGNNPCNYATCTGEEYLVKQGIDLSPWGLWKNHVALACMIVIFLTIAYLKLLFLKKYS
- protocol: BCRP substrate assessment, Caco-2 monolayers
- Assay type: in vitro ADME
- Set-up: host or cells: Caco-2 (clone C2BBe1)
- details: human, Caco-2, pH 7.4, Caco-2; Cladribine; A-to-B; read-out: Papp R1

{"columns": ["compound", "Papp A→B at 120 min, ×10⁻⁶ cm/s"],
 "data": [
  ["Nc1nc(Cl)nc2c1ncn2[C@H]1C[C@H](O)[C@@H](CO)O1 [Cladribine, cladribine]", 0.681]
]}

* * *

- measured target: CYP2B6 (Homo sapiens, UniProt P20813)
- Sequence (P20813 whole entry): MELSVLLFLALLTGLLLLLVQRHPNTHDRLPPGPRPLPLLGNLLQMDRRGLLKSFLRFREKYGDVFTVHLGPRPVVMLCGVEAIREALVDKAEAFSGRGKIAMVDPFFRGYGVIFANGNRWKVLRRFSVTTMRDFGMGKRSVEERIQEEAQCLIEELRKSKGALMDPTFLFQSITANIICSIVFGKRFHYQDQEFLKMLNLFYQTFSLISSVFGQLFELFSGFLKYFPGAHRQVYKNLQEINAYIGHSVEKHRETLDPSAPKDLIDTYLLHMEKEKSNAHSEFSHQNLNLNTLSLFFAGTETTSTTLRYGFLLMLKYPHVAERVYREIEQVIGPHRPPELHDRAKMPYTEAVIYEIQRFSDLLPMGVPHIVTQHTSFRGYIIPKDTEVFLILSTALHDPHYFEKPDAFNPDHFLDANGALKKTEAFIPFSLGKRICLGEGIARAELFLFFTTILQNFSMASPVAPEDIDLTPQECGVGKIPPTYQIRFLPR
- protocol: time-dependent CYP inhibition in human liver microsomes (IC50 shift)
- details: both, pooled human liver microsomes, pH 7.4, % of Control Enzyme Activity, pre-incubation 30 min −NADPH, 3.33 μM

{"columns": ["smi", "unit text", "activity at 20 min, 3.33 µM"],
 "data": [
  ["S=P(N1CC1)(N1CC1)N1CC1", "%", 78.5]
]}

* * *

- protocol: in vitro
- details: male, CD-1, mouse, plasma, % Bound R1-R3
parameter: fraction unbound at 4 h, 10 μM

{"columns": ["compound", "parameter", "numeric value"],
 "data": [
  ["CC(=O)CC(c1ccccc1)c1c(O)c2ccccc2oc1=O (stereo not shown) [Warfarin, warfarin]", "fraction unbound at 4 h, 10 μM", 0.226]
]}

* * *

- measured target: BCRP (Homo sapiens)
- protocol: BCRP substrate assessment, BCRP-MDCK monolayers
- Type: in vitro ADME
- details: dog, pH 7.4, BCRP-MDCK; Cladribine; B-to-A; read-out: Papp R2
parameter: Papp B→A at 120 min

{"columns": ["smi", "result"],
 "data": [
  ["Nc1nc(Cl)nc2c1ncn2[C@H]1C[C@H](O)[C@@H](CO)O1", "19.6 ×10⁻⁶ cm/s"]
]}

* * *

- measured target: BCRP (Homo sapiens, UniProt Q9UNQ0)
- protocol: BCRP substrate assessment, Caco-2 monolayers
- Type: in vitro ADME
- Parameters: host or cells: Caco-2 (clone C2BBe1)
- details: human, Caco-2, pH 7.4, Caco-2; Cladribine; B-to-A

{"columns": ["smi", "recovery at 120 min, %"],
 "data": [
  ["Nc1nc(Cl)nc2c1ncn2[C@H]1C[C@H](O)[C@@H](CO)O1", 85.6]
]}

* * *

- measured target: UniProtKB P08684
- Sequence (P08684 2-503): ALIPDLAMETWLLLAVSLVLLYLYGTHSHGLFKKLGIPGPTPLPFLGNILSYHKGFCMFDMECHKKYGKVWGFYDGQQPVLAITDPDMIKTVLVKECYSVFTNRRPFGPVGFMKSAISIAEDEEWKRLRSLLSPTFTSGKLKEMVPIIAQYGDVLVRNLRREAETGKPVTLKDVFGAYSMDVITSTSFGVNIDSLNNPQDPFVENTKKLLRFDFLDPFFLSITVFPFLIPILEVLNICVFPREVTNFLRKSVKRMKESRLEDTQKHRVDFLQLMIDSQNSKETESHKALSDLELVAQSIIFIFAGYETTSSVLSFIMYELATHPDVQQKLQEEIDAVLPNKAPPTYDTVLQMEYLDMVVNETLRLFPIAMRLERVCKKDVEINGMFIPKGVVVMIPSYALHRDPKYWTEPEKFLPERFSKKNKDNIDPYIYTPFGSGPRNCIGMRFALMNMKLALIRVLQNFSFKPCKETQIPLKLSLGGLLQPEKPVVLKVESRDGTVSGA
- protocol: in vitro
- details: both, microsomes, pH 7.4, % of Control Enzyme Activity, HLM, Testosterone probe, 0.0370 μM

{"columns": ["molecule", "activity at 10 min, 0.037 µM"],
 "data": [
  ["CC(=O)N1CCN(c2ccc(OCC3COC(Cn4ccnc4)(c4ccc(Cl)cc4Cl)O3)cc2)CC1 (stereo not shown)", "32.9%"]
]}

* * *

- protocol: in vitro
- details: male, Beagle, dog, plasma, % Bound Mean

{"columns": ["molecule", "fraction unbound at 4 h, 10 μM"],
 "data": [
  ["CC(=O)CC(c1ccccc1)c1c(O)c2ccccc2oc1=O (stereo not shown)", 0.026]
]}

* * *

- measured target: P-GP (Homo sapiens)
- protocol: in vitro
- details: Caco-2, pH 7.4
parameter: Papp B→A at 120 min

{"columns": ["smi", "parameter", "result"],
 "data": [
  ["C[C@H]1O[C@@H](O[C@H]2[C@@H](O)C[C@H](O[C@H]3[C@@H](O)C[C@H](O[C@H]4CC[C@@]5(C)[C@H](CC[C@@H]6[C@@H]5C[C@@H](O)[C@]5(C)[C@@H](C7=CC(=O)OC7)CC[C@]65O)C4)O[C@@H]3C)O[C@@H]2C)C[C@H](O)[C@@H]1O", "Papp B→A at 120 min", "10.5 ×10⁻⁶ cm/s"]
]}

* * *

- measured target: CYP2C9 (Homo sapiens)
- Sequence (P11712 whole entry): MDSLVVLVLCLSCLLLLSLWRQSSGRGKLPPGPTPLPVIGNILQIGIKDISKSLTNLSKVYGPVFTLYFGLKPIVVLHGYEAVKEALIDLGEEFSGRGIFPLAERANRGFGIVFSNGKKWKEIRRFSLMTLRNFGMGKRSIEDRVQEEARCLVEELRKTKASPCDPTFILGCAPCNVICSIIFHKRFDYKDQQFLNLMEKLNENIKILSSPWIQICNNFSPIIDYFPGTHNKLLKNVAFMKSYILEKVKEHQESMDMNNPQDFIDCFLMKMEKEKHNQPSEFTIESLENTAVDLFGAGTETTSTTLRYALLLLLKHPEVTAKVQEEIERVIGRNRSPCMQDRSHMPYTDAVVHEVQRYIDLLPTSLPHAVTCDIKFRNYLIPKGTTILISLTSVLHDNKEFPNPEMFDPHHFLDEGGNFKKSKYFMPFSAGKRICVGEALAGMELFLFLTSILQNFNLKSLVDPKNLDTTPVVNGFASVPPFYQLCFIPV
- protocol: in vitro
- details: both, microsomes, pH 7.4, % of Control Enzyme Activity

{"columns": ["molecule", "activity at 20 min, 0.37 µM, %"],
 "data": [
  ["O=C(O)COc1ccc(C(=O)c2cccs2)c(Cl)c1Cl [Tienilic acid]", 80.1]
]}

* * *

- measured target: BCRP (Homo sapiens, UniProt Q9UNQ0)
- protocol: in vitro
- details: Caco-2, pH 7.4, % Recovery, IC50 determination, Caco-2, Cladribine alone, B-A
parameter: recovery

{"columns": ["smi", "measured target", "parameter", "result"],
 "data": [
  ["Nc1nc(Cl)nc2c1ncn2[C@H]1C[C@H](O)[C@@H](CO)O1", "BCRP (Homo sapiens, UniProt Q9UNQ0)", "recovery", "103%"]
]}

* * *

Below: a set of entries, each annotated with reported AUC0-24.
- protocol: Compound 2 and metabolites in rat plasma, 50 mg/kg PO QD×10
- Format: in vivo
- details: Day 1; rat; Compound 2 50 mg/kg PO
parameter: AUC0-24 (ng·h/mL)

{"columns": ["molecule", "unit text", "numeric value"],
 "data": [
  ["CCn1c(C#CCNc2ccccc2)cc2cc(CNCc3ccccc3)ccc21 [Compound 4]", "ng·h/mL", 1241],
  ["CCn1c(C#CCNc2ccc(C)nc2)cc2cc(CNC3CCOCC3)ccc21 [Compound 8]", "ng·h/mL", 1254],
  ["CCn1c(C#CCNc2ccc(Cl)cc2)cc2cc(CNC3CCN(C)CC3)ccc21 [Compound 7]", "ng·h/mL", 16],
  ["CCn1c(C#CCNc2ccc(F)cc2)cc2cc(CNC)ccc21 [Compound 5]", "ng·h/mL", 13840]
]}

* * *

- measured target: P-GP (Homo sapiens, UniProt P08183)
- Sequence (P08183 whole entry): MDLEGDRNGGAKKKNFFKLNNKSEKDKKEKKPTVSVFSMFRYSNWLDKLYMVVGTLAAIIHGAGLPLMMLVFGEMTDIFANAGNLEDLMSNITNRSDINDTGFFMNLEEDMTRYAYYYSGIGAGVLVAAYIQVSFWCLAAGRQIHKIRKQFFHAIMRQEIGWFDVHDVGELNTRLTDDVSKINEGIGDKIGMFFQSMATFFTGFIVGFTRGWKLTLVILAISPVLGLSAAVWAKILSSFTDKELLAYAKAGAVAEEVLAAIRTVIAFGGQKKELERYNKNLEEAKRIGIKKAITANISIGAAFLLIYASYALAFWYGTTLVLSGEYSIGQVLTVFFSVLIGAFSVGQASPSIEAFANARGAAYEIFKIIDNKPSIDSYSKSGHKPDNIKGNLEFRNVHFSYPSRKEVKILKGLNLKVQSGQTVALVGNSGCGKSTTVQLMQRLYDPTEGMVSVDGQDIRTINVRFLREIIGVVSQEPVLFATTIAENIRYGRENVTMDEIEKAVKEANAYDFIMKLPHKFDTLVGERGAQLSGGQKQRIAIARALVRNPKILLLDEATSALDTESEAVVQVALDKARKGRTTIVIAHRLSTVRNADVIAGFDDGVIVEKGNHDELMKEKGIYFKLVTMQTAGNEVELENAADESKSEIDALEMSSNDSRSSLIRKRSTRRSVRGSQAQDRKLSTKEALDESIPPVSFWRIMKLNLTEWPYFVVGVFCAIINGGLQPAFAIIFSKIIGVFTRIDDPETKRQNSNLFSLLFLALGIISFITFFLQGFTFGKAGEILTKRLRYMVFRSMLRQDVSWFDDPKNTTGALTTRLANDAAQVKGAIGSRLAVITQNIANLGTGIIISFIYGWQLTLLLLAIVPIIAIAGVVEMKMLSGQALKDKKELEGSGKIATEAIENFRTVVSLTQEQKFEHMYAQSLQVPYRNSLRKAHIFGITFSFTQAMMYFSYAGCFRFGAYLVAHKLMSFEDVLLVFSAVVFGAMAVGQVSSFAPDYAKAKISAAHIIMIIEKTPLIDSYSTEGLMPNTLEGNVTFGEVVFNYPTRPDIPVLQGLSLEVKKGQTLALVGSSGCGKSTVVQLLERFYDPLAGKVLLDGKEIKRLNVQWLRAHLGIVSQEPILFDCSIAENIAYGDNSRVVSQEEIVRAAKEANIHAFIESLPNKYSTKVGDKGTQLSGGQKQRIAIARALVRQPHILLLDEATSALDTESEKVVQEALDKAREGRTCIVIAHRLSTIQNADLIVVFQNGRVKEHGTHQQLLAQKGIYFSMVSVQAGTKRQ
- protocol: in vitro
- details: Caco-2, pH 7.4

{"columns": ["compound", "recovery at 120 min"],
 "data": [
  ["C[C@H]1O[C@@H](O[C@H]2[C@@H](O)C[C@H](O[C@H]3[C@@H](O)C[C@H](O[C@H]4CC[C@@]5(C)[C@H](CC[C@@H]6[C@@H]5C[C@@H](O)[C@]5(C)[C@@H](C7=CC(=O)OC7)CC[C@]65O)C4)O[C@@H]3C)O[C@@H]2C)C[C@H](O)[C@@H]1O [Digoxin, digoxin]", "73.4%"]
]}

* * *

- measured target: CYP2C8 (Homo sapiens)
- Sequence (P10632 whole entry): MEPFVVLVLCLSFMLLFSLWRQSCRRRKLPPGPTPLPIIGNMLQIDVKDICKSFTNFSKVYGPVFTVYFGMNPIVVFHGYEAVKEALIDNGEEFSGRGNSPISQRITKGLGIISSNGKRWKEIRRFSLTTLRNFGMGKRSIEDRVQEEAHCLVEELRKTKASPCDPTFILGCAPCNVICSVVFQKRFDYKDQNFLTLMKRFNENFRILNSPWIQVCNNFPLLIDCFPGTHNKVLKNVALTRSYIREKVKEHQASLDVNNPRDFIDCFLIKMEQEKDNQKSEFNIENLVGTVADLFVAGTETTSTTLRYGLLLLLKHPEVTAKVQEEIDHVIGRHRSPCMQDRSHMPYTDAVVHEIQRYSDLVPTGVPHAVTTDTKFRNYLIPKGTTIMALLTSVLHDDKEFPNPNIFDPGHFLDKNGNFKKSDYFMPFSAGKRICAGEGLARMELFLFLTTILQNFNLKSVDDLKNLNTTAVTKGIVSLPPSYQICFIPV
- protocol: in vitro
- details: both, microsomes, pH 7.4
parameter: activity at 20 min, 10 µM (%)

{"columns": ["smi", "numeric value"],
 "data": [
  ["CC(C)(O)c1ccccc1CC[C@@H](SCC1(CC(=O)O)CC1)c1cccc(/C=C/c2ccc3ccc(Cl)cc3n2)c1", 2.17]
]}
